Measured values drawn from PubChem BioAssay (NCI) for this set.

Measured growth inhibition of individual entries
# procedure-summary: NCI Yeast Anticancer Drug Screen. Data for the mec2-1 strain (AID 157)
# run-parameters: S. cerevisiae mec2-1 strain, at 1.2 µM, active compounds read high
About 79,000 compounds went through this panel and 15% of them were active in at least one assay; those are over-represented in the sample as a whole.
measured-attribute: growth inhibition (%)

INSERT INTO assay_data (compound, recorded_value) VALUES
  ('COC(=O)c1cnc(Cl)c([N+](=O)[O-])c1', 5),
  ('CC1=CN2C(c3ccccc3)=NON(c3ccc(C)cn3)C2C=C1 (stereo unspecified)', -3),
  ('CCN(CC)CCNc1ccc2nc(C)n3c4ccc(OC)cc4c(=O)c1c23', 32),
  ('O=C1c2ccccc2C(=O)c2c(O)c(NCCNCCO)cc(O)c21', -3),
  ('Cc1ccc(S(=O)(=O)N/N=C/C(Br)=C(/Br)C(=O)O)cc1', 20),
  ('O=C1C(CCSc2ccccc2)C(=O)N(c2ccccc2)C1c1ccccc1 (stereo unspecified)', 11);
